procedureSummary: gradient 5% acetonitrile 3 min, to 50% in 2 min, to 85% in 15 min, held 3 min, 100 µL/min
measurementParameters: column: Zorbax Extend-C18 2.1 x 50 mm; eluents: water / acetonitrile, 0.1% formic acid
Recorded RP-LC retention time, one value per entry.

compound	RP-LC retention time, s
CCOc1ccc(-c2[nH]ncc2CN)cc1	575
CCCNC(=O)C1CCCN(c2nc3ncn(CC(=O)Nc4c(C)cccc4CC)c(=O)c3s2)C1 (stereo not given)	727
O=C(Nc1ccc2c(c1)OCCO2)C1CC(=O)N(CCc2c[nH]c3ccc(F)cc23)C1 (stereo not given)	764
CCN(CC)CCNC(=O)C(C)n1c(=O)c(C(F)(F)F)nc2ccccc21 (stereo not given)	669
O=C(NCCCN1CCCC1)C1CN(C(=O)c2ccccc2)CC12CCCCC2 (stereo not given)	611
Cc1ncsc1CN1CCC(c2nc(-c3ccc(F)cc3)n[nH]2)CC1	918
CN1CCCn2cc(S(=O)(=O)NCc3ccc(F)cc3Cl)cc2C1=O	707
CCNc1cc(N2CCC(CCC(=O)NCc3c(C)nn(C)c3C)CC2)ncn1	575
C=CCn1nc2ccc(S(=O)(=O)N3CCC(C)CC3)cn2c1=O	843
CCN1C(=O)COc2ccc(-c3noc(Cc4ccc(OC)cc4)n3)cc21	1000

----------
RP-LC retention time values, listed per item
procedureSummary: gradient 5% acetonitrile 3 min, to 50% in 2 min, to 85% in 15 min, held 3 min, 100 µL/min
measurementParameters: column: Zorbax Extend-C18 2.1 x 50 mm; eluents: water / acetonitrile, 0.1% formic acid
measuredQuantity: RP-LC retention time (s)

compound	endpointResult
CCCC1OC(c2cc3c(cc2Cl)OCO3)OCC1CC (stereo not given)	1070
Cn1cc(CN2CCC(C(=O)NCCN3CCN(c4ccccc4)CC3)CC2)c2ccccc21	571
Cc1c(C(=O)N2CCSCC2)cnn1-c1cc(-c2nc(C(C)C)no2)ccn1	974
CC(=O)N1CCc2cc(C)c(S(=O)(=O)NC(C)C)cc21	740
COCc1nc(NCc2ccc(OC)c(OC)c2)ncc1C(=O)O	644
COCCc1noc(-c2ccc(=O)n(CC(=O)Nc3ccccc3)c2)n1	695
COc1cc(=O)n2c(c1C(=O)Nc1ccc(Br)cc1C)CCCC2	757
Cc1noc(C)c1COc1ccccc1CN1CCC2(CCC2O)CC1 (stereo not given)	621
Cc1ccc(-c2coc(-c3ccc(NC(=O)Cc4cccs4)cc3)n2)c(C)c1	1330
Cc1cc(-c2nnc(-c3ccc(F)cc3)o2)c(C)n1CC(=O)NC1CCCCC1	979

----------
procedureSummary: gradient 5% acetonitrile 3 min, to 50% in 2 min, to 85% in 15 min, held 3 min, 100 µL/min
measurementParameters: column: Zorbax Extend-C18 2.1 x 50 mm; eluents: water / acetonitrile, 0.1% formic acid

molecule	RP-LC retention time (s)
CC(=O)N1c2ccc(S(=O)(=O)NCCOc3ccc(F)cc3)cc2CC1C (centres undefined)	798
O=C(Nc1nnc(C2CC(=O)N(c3ccccc3)C2)o1)c1ccccc1Br (centres undefined)	709
COc1ccc(CNC(=O)Cn2c(N3CCOCC3)nc(C)cc2=O)cc1	629
CCN1CCCCc2cc(C(=O)NCC(N)=O)sc21	679
CC(C)Oc1cccc(NC(=O)C2CCN(S(C)(=O)=O)c3ccccc3O2)c1 (centres undefined)	830
COc1cc(C(=O)N2CCN(c3cc(=O)n(C)c(=O)n3C)CC2)cc(OC)c1OC	630
Cc1[nH]c(/C=C2\C(=O)Nc3ccc(S(=O)(=O)Cc4c(Cl)cccc4Cl)cc32)c(C)c1C(=O)N1CCC[C@@H]1CN1CCCC1	787
Cc1ccc(-c2nnc(-c3ccccc3)o2)cc1S(=O)(=O)N1CCCCCC1	1200
CCn1cc(C2=CCN(S(=O)(=O)c3ccc(C)c(Cl)c3)CC2)c2cccnc21	1180

----------
# RP-LC retention time annotations
procedureSummary: gradient 5% acetonitrile 3 min, to 50% in 2 min, to 85% in 15 min, held 3 min, 100 µL/min
measurementParameters: column: Zorbax Extend-C18 2.1 x 50 mm; eluents: water / acetonitrile, 0.1% formic acid

compound	RP-LC retention time, s
Cc1nc(-c2ccc3c(c2)CCN3C(=O)c2n[nH]c3ccccc23)cs1	959
Cn1cccc(C(=O)NC2CC(=O)N(C3CC3)C2)c1=O (stereo not given)	547
Cc1ccc(C)c(S(=O)(=O)N2[C@H]3CC[C@@H]2c2cnc(-c4ccc(F)cc4)nc2C3)c1	1270
O=C(NC1CCc2ccccc21)C1CCN(c2ncccc2-c2nc(-c3cccc(F)c3)no2)CC1 (stereo not given)	1160
O=C(O)CSc1nnc(Br)n1-c1ccc(C2CC2)c2ccccc12	949
O=C(NCc1ccc2c(c1)OCO2)C1CCN(c2cc(N3CCCCC3)ncn2)CC1	715
CCC(=O)N1CCCC(c2nc(CNC(=O)C(C)C)cs2)C1 (stereo not given)	632
Cc1nc(-c2nnc(NC(=O)c3cnccn3)o2)cs1	567
CCNC(=O)N1CCCCCC1CN1CCCC1 (stereo not given)	564
O=C(O)c1cnc(N2CCSCC2)nc1-c1cccc(Cl)c1	964

----------
Overview of reported RP-LC retention time across a group of compounds:
procedureSummary: gradient 5% acetonitrile 3 min, to 50% in 2 min, to 85% in 15 min, held 3 min, 100 µL/min
measurementParameters: column: Zorbax Extend-C18 2.1 x 50 mm; eluents: water / acetonitrile, 0.1% formic acid
measuredQuantity: RP-LC retention time (s)

compound	endpointResult
CC(NC(=O)c1ccc2ncnc(N3CCCCC3)c2c1)c1cccnc1 (centres undefined)	545
COc1ccccc1-c1noc(Cn2cnc3c(cnn3-c3ccc(C)cc3)c2=O)n1	1100
Cc1cnc(CC2CCN(S(=O)(=O)c3cn(C)cn3)C2)n1Cc1ccccc1 (centres undefined)	590
CCn1c(=O)c(C(=O)NCc2cc(F)ccc2F)nc2cccnc21	802
Cc1ccc(OCC(=O)Nc2cc3[nH]c(=O)[nH]c3cc2C)cc1	698
CCOC(=O)c1[nH]c(C)c(CN(Cc2ccco2)C(=O)Nc2cccc(F)c2)c1C	990
CCn1c(=O)cc(SCC(=O)N2CCN(c3ccccn3)CC2)c2ccccc21	607
Cc1nc(-c2cccc(NC(=O)c3cccc(F)c3)c2)cs1	856
CCc1noc(NC(C)=O)c1-c1ccc(C)c(S(=O)(=O)Nc2cc(Cl)ccc2OC)c1	872
CN(CC1(C)CCOCC1)S(=O)(=O)c1ccc(Cl)s1	976
CNC(=O)N1CCCN(C2=NS(=O)(=O)C(c3ccccc3)=C2C)CC1	594
O=C(CC1CCCC1)N1CCCC(c2nc(-c3ccccc3)n[nH]2)C1 (centres undefined)	801
O=C(CSc1nnc(-c2ccccc2F)o1)N1CCCc2ccccc21	872
COc1ccccc1NC(=O)N1CCN(Cc2nc3ccc(Cl)cc3o2)CC1	731
Cc1nnc(N2CCC(C(=O)NCCN(C)C)CC2)c2nn(-c3ccc(Cl)cc3)c(C)c12	586
CC1=C(c2ccccc2)S(=O)(=O)N=C1N1CCCN(C(=O)c2cccc(F)c2)CC1	847
COc1cccc(CNC(=O)C2CCCN2S(=O)(=O)c2ccc3c(c2)C(C)(C)C(=O)N3C)c1 (centres undefined)	821
O=C(NCCSCc1ccco1)c1cc(-c2cccnc2)nc2ccccc12	738
Cc1nn(CC(=O)NCCC2=CCCCC2)c(=O)c2c(-n3cccc3)n(-c3cccc(F)c3)nc12	1090

----------
Measured RP-LC retention time of individual entries
procedureSummary: gradient 5% acetonitrile 3 min, to 50% in 2 min, to 85% in 15 min, held 3 min, 100 µL/min
measurementParameters: column: Zorbax Extend-C18 2.1 x 50 mm; eluents: water / acetonitrile, 0.1% formic acid

molecule	RP-LC retention time [s]
CCOc1cc(=O)n2c(c1C(=O)N1CCN(C3CCCCC3)CC1)CCCCC2	590
CNC(=O)NCC(c1ccc(F)cc1)c1c[nH]c2ccccc12 (centres undefined)	782
Cc1sc2ccn(C)c(=O)c2c1C(=O)NCc1ccc(F)cc1Cl	827
O=C(CC1(O)C(=O)Nc2c(Cl)cc(Cl)cc21)c1ccc([N+](=O)[O-])cc1 (centres undefined)	800
COC[C@@H]1CN(S(=O)(=O)c2ccccc2C)C[C@H]1c1ccccn1	637
O=c1c2cnc3nc(-c4ccccc4)nn3c2ccn1CCc1c[nH]c2ccc(Cl)cc12	997
CC1CCCN(C(=O)C2c3ccccc3CC(=O)N2C)C1 (centres undefined)	748
Cc1ccc(N2CC(c3nc(-c4ccc(N(C)C)cc4)no3)CC2=O)cc1Cl (centres undefined)	1160
CN1CC[C@]2(c3cccc(O)c3)Cc3nc4ccccc4cc3C[C@H]2C1	572

----------
procedureSummary: gradient 5% acetonitrile 3 min, to 50% in 2 min, to 85% in 15 min, held 3 min, 100 µL/min
measurementParameters: column: Zorbax Extend-C18 2.1 x 50 mm; eluents: water / acetonitrile, 0.1% formic acid
measuredQuantity: RP-LC retention time

molecule	endpointResult
O=C(Nc1cc(-c2ccccc2)nn1CCO)c1ccc2nsnc2c1	764 s
O=C(CC(=O)Nc1ccccc1F)Nc1ccc2nc3n(c(=O)c2c1)CCCCC3	722 s
COCC1CN(S(=O)(=O)Cc2ccc(C)c(C)c2)CC12CCNCC2 (stereo not given)	654 s
CC(NC(=O)Cn1c(=O)n(-c2ccc(F)cc2)c2ncccc21)c1ccccn1 (stereo not given)	627 s
O=C(NCc1ccccc1F)C1CCN(C(=O)c2ncn3c2COC(c2ccc(F)cc2)C3)CC1 (stereo not given)	736 s
COc1ccc(NC(=O)C2CCN(S(=O)(=O)c3cc(-c4noc(C)n4)cs3)CC2)c(OC)c1	885 s
O=C(C1CCN(S(=O)(=O)c2cc(-c3noc(C4CCC4)n3)cs2)CC1)N1CCOCC1	863 s
O=C(c1ccc2c(c1)OCO2)N1CCC(n2nc(-c3ccsc3)ccc2=O)CC1	764 s
Cc1nc(C)c(C(=O)N2CCCC2c2nc(CCOCC3CCCC3)no2)s1 (stereo not given)	905 s
O=C(COc1ccc(Cl)cc1Cl)NCC1CCN(C(=O)Oc2ccccc2)CC1	987 s
Cc1cccc(NC(=O)CN2C(=O)CC(C)S(=O)(=O)c3ccccc32)c1C (stereo not given)	789 s
COc1cccc(-c2csc(Cc3nc(-c4ccccc4Cl)no3)n2)c1	1150 s
CCc1ccccc1NC(=O)N1CC(n2cnnc2-c2ccccc2)C1	686 s
CCc1cc(C2CCCN2C(=O)NCc2ccccc2)on1 (stereo not given)	766 s
Cc1cc(NC(=O)c2cn3c(n2)CSCC3)ccc1F	743 s
CSc1ccc(-c2nc3cnccn3c2Nc2cccc(C(N)=O)c2)cc1	684 s
CC(C(=O)N1CCN(c2cc(-c3ccc(Cl)cc3)[nH]n2)CC1)c1ccccc1 (stereo not given)	921 s
COc1cc(NC(=O)C2=C(C)OCCS2)c(Cl)cc1C(=O)N1CCN(C2CCCCC2)CC1	684 s
Cc1cc(C)nc(Nc2nc(C(=O)NCCOc3ccc(F)cc3)cs2)n1	842 s
CCn1cc(C(=O)Nc2cc(C)ccc2C)c2cccnc21	854 s
